Target: T1, Human IL2Rγ extracellular domain expressed with a C-terminal myc-myc-hexahistidine tag (human)
T1 construct: also called hIL-2Rg-MMH; hIL-2RG-MMH
T1 chain: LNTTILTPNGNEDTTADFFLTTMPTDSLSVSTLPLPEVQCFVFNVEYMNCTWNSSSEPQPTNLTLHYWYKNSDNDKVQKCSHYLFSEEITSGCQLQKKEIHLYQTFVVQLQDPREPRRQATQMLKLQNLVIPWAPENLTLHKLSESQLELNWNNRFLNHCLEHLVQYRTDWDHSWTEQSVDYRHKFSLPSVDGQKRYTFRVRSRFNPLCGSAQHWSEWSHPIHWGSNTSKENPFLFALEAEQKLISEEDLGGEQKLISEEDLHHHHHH
Experiment: SPR Biacore 4000, mAb captured by anti-hFc, HBS-ET, 37C
endpoint: t1/2 (min)
The figure you give is taken to be in min; do not add the unit.

// field: t1/2; key: H4H13538P (antibody, human IgG4 S228P, kappa, V domains shown, anti-IL2Rγ monoclonal antibody expressed with human IgG4 Fc) VH: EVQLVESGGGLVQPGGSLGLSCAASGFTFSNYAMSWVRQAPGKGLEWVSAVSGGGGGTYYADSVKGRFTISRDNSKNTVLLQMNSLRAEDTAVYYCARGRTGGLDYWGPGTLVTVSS VL: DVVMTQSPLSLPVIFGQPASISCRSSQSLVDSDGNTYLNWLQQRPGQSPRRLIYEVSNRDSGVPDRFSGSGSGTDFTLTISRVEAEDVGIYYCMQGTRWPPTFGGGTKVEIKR ; value = 11

// field: t1/2; key: H4H12863P (antibody, human IgG4 S228P, kappa, V domains shown, anti-IL2Rγ monoclonal antibody expressed with human IgG4 Fc) VH: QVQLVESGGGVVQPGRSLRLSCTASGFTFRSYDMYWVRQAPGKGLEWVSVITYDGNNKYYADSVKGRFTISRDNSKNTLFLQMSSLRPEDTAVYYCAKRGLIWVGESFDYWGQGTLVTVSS VL: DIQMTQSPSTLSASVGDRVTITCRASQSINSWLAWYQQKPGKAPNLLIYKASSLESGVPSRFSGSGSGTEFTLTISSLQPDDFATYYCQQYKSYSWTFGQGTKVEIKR ; value = 8

// field: t1/2; key: H4H12899P (antibody, human IgG4 S228P, kappa, V domains shown, anti-IL2Rγ monoclonal antibody expressed with human IgG4 Fc) VH: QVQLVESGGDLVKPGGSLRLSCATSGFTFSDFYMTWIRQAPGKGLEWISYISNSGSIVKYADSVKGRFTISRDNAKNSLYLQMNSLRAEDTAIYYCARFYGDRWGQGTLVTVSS VL: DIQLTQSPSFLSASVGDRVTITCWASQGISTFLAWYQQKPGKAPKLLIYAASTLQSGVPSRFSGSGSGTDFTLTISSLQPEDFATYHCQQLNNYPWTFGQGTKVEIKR ; value = 5
